Recorded values, source ChEMBL document CHEMBL1132189.

biological target: Serine protease 1 (Bos taurus)
propertyName: pKi
// scale note: pKi = -log10(conc_M); give the bare number

Completed entries (count: 5):
CC(C)c1cc(C(C)C)c(S(=O)(=O)N[C@@H](Cc2cccc(C(=N)N)c2)C(=O)N2CCC[C@H](C(=O)O)C2)c(C(C)C)c1: 5.62
COC(=O)[C@H]1CCCN(C(=O)[C@H](Cc2cccc(C(=N)N)c2)NS(=O)(=O)c2ccc3ccccc3c2)C1: 6.41
N=C(N)c1cccc(C[C@H](NS(=O)(=O)c2ccc3ccccc3c2)C(=O)N2CC(C(=O)O)=Cc3ccccc32)c1: 4.51
CC1CCN(C(=O)[C@H](Cc2cccc(C(=N)N)c2)NC(=O)OC(C)(C)C)CC1: 4.85
CNC(=O)[C@H](Cc1cccc(C(=N)N)c1)NS(=O)(=O)c1c(C)cc(OC)c(C)c1C: 3.85

Input: Form field - read-out: pKi; system: Serine protease 1 (Bos taurus); submitted item: N=C(N)c1cccc(C[C@H](NS(=O)(=O)c2ccc3ccccc3c2)C(=O)N2CCC(C=O)CC2)c1
Output: 6.66

Input: Request body: readout pKi, system Serine protease 1 (Bos taurus), query COC(=O)[C@H]1[C@@H](C)CCCN1C(=O)[C@H](Cc1cccc(C(=N)N)c1)NS(=O)(=O)c1ccc2ccccc2c1 . Return the value.
Output: 5.75

* * *

Observed Ki values for UniProt:P00760 are listed in what follows.
Return type: number; implicit unit nM.

CCCCOC(=O)[C@H](Cc1cccc(C(=N)N)c1)NS(=O)(=O)c1ccc2ccccc2c1: 260
CC(C)OC(=O)[C@H]1CCCN(C(=O)[C@H](Cc2cccc(C(=N)N)c2)NS(=O)(=O)c2ccc3ccccc3c2)C1: 427
N=C(N)c1cccc(C[C@H](NS(=O)(=O)c2ccc3ccccc3c2)C(=O)N2CCCc3ccccc32)c1: 1510

Input: So what does the record say about Ki for COC(=O)C1CCN(C(=O)[C@H](Cc2cccc(C(=N)N)c2)NS(=O)(=O)c2ccc3ccccc3c2)CC1 ?
Output: 36

Input: // Ki lookup, key: CC(C)c1cc(C(C)C)c(S(=O)(=O)N[C@@H](Cc2cccc(C(=N)N)c2)C(=O)N2CCC[C@H](C(=O)NCc3ccccc3)C2)c(C(C)C)c1
Output: 460

Input: Using the record for COC(=O)[C@H](Cc1cccc(C(=N)N)c1)NS(=O)(=O)c1ccc2ccccc2c1 , report its Ki.
Output: 2510

Input: Which Ki is listed for COC(=O)N1CCN(C(=O)[C@H](Cc2cccc(C(=N)N)c2)NS(=O)(=O)c2ccc3ccccc3c2)CC1 ?
Output: 20

Input: Form field: reported Ki of CC(C)(C)c1ccc(S(=O)(=O)N[C@@H](Cc2cccc(C(=N)N)c2)C(=O)N2CCN(S(C)(=O)=O)CC2)cc1
Output: 160

* * *

Listing of recorded pKi by entry.
target: Coagulation factor X (Homo sapiens); assay: Binding affinity towards Coagulation factor Xa
Sequence (P00742 41-179 limits assumed): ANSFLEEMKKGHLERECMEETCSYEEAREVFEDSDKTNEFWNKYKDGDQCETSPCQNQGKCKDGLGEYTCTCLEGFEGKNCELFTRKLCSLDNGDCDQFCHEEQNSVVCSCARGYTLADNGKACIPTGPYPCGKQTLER
Sequence (P00742 235-488 limits assumed): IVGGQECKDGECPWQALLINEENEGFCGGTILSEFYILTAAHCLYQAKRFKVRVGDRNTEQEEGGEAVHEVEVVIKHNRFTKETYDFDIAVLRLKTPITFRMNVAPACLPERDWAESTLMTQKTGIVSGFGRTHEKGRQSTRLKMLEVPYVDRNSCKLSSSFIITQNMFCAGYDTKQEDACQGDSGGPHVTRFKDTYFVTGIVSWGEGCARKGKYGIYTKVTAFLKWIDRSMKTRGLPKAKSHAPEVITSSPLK
Kindly note that pKi refers to -log10 of the concentration in mol/L and answer with the value alone.

Input: Can you share its pKi? I mean this compound: CNC(=O)[C@H]1CCCCN1C(=O)[C@H](Cc1cccc(C(=N)N)c1)NS(=O)(=O)c1ccc2ccccc2c1
Output: 4.24

* * *

Target: UniProt P00760
Sequence (P00760 whole entry): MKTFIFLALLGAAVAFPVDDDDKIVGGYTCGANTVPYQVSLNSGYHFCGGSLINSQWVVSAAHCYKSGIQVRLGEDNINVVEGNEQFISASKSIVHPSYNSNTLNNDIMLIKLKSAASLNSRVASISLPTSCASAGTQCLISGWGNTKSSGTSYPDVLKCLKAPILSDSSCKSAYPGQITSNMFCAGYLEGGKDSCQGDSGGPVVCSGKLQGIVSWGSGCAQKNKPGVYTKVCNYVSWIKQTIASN
Ki vs 700 nM: less than gives Y; not less than gives N.

Record excerpt, results attached:
N=C(N)c1cccc(C[C@H](NS(=O)(=O)c2ccc3ccccc3c2)C(=O)N2CCCCCCC2)c1: Y
COC(=O)[C@H]1CCCCN1C(=O)[C@H](Cc1cccc(C(=N)N)c1)NS(=O)(=O)c1ccc2ccccc2c1: N

Input: Is it true that Ki reported for N=C(N)c1cccc(C[C@H](NS(=O)(=O)c2ccc3ccccc3c2)C(=O)N2CCC[C@H](C(=O)NCc3ccccc3)C2)c1 is less than 700 nM?
Output: Y

Input: Hello, is Ki of the following compound strictly smaller than 700 nM? N=C(N)c1cccc(C[C@H](NS(=O)(=O)c2ccc3ccccc3c2)C(=O)N2CCC[C@H](C(=O)O)C2)c1
Output: Y

Input: Does CN(C)C(=O)N1CCN(C(=O)[C@H](Cc2cccc(C(=N)N)c2)NS(=O)(=O)c2ccc3ccccc3c2)CC1 have Ki strictly under 700 nM?
Output: Y

Input: # strict comparison: is reported Ki < 700 nM? input = COc1cc(C)c(S(=O)(=O)N[C@@H](Cc2cccc(C(=N)N)c2)C(=O)N2CCN(S(C)(=O)=O)CC2)c(C)c1C
Output: N

Input: Does CC(C)c1cc(C(C)C)c(S(=O)(=O)N[C@@H](Cc2cccc(C(=N)N)c2)C(=O)N2CCC[C@H](C(=O)OCc3ccccc3)C2)c(C(C)C)c1 have Ki strictly under 700 nM?
Output: N

Input: Determine if CC(C)OC(=O)C1CCN(C(=O)[C@H](Cc2cccc(C(=N)N)c2)NS(=O)(=O)c2ccc3ccccc3c2)CC1 shows Ki strictly lower than 700 nM.
Output: Y

Input: Would you kindly verify if Ki of N=C(N)c1cccc(C[C@H](NS(=O)(=O)c2ccc3ccccc3c2)C(=O)N2CCC(N3CCCCC3)CC2)c1 is strictly less than 700 nM?
Output: N
